B1: KRT18 (parent)
chain: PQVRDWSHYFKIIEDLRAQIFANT

# Variants of: B1
# ASSAY: protein stability index of a GFP-peptide fusion (GPS, HEK-293T) (PSI 1-6); higher = more stable;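 note: lentivirally expressed fusions sorted by FACS into six bins by GFP to DsRed ratio, PSI derived from sequencing read proportions per bin multiplied by bin number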
# MEASUREMENT_CONTEXT: c terminus: a fixed tail appended
Criterion: protein stability index meeting or surpassing 2. Met: class 1. Not met: class 0.

QUERY: Determine whether measured protein stability index meets or exceeds 2 for V3H
RESULT: class 0

QUERY: Determine whether measured protein stability index meets or exceeds 2 for P1K
RESULT: class 1

QUERY: Determine whether measured protein stability index meets or exceeds 2 for I20Y
RESULT: class 1

QUERY: Determine whether measured protein stability index meets or exceeds 2 for V3K
RESULT: class 0

QUERY: Determine whether measured protein stability index meets or exceeds 2 for Y9I
RESULT: class 1

QUERY: Determine whether measured protein stability index meets or exceeds 2 for D5T
RESULT: class 1

QUERY: Determine whether measured protein stability index meets or exceeds 2 for D5K
RESULT: class 1

QUERY: Determine whether measured protein stability index meets or exceeds 2 for A18P
RESULT: class 1

QUERY: Determine whether measured protein stability index meets or exceeds 2 for R4A
RESULT: class 1

QUERY: Determine whether measured protein stability index meets or exceeds 2 for W6G
RESULT: class 1

QUERY: Determine whether measured protein stability index meets or exceeds 2 for I13K
RESULT: class 0

QUERY: Determine whether measured protein stability index meets or exceeds 2 for L16F
RESULT: class 0

QUERY: Determine whether measured protein stability index meets or exceeds 2 for A22W
RESULT: class 0

QUERY: Determine whether measured protein stability index meets or exceeds 2 for F21S
RESULT: class 1

QUERY: Determine whether measured protein stability index meets or exceeds 2 for D5L
RESULT: class 1

QUERY: Determine whether measured protein stability index meets or exceeds 2 for Q19W
RESULT: class 1

QUERY: Determine whether measured protein stability index meets or exceeds 2 for N23F
RESULT: class 0

QUERY: Determine whether measured protein stability index meets or exceeds 2 for Q19C
RESULT: class 0

QUERY: Determine whether measured protein stability index meets or exceeds 2 for Q2M
RESULT: class 1

QUERY: Determine whether measured protein stability index meets or exceeds 2 for N23L
RESULT: class 1

QUERY: Determine whether measured protein stability index meets or exceeds 2 for F10Q
RESULT: class 1

QUERY: Determine whether measured protein stability index meets or exceeds 2 for V3E
RESULT: class 1

QUERY: Determine whether measured protein stability index meets or exceeds 2 for N23H
RESULT: class 1

QUERY: Determine whether measured protein stability index meets or exceeds 2 for V3T
RESULT: class 1

QUERY: Determine whether measured protein stability index meets or exceeds 2 for P1A
RESULT: class 0

QUERY: Determine whether measured protein stability index meets or exceeds 2 for N23D
RESULT: class 1

QUERY: Determine whether measured protein stability index meets or exceeds 2 for R17F
RESULT: class 0

QUERY: Determine whether measured protein stability index meets or exceeds 2 for E14Q
RESULT: class 1

QUERY: Determine whether measured protein stability index meets or exceeds 2 for L16Y
RESULT: class 1

QUERY: Determine whether measured protein stability index meets or exceeds 2 for I13C
RESULT: class 1

QUERY: Determine whether measured protein stability index meets or exceeds 2 for I20R
RESULT: class 1

QUERY: Determine whether measured protein stability index meets or exceeds 2 for P1T
RESULT: class 1

QUERY: Determine whether measured protein stability index meets or exceeds 2 for S7N
RESULT: class 1

QUERY: Determine whether measured protein stability index meets or exceeds 2 for Y9E
RESULT: class 1

QUERY: Determine whether measured protein stability index meets or exceeds 2 for Y9F
RESULT: class 0

QUERY: Determine whether measured protein stability index meets or exceeds 2 for D5Y
RESULT: class 1

QUERY: Determine whether measured protein stability index meets or exceeds 2 for S7K
RESULT: class 1

QUERY: Determine whether measured protein stability index meets or exceeds 2 for K11M
RESULT: class 0

QUERY: Determine whether measured protein stability index meets or exceeds 2 for K11C
RESULT: class 1

QUERY: Determine whether measured protein stability index meets or exceeds 2 for K11Q
RESULT: class 1

QUERY: Determine whether measured protein stability index meets or exceeds 2 for V3C
RESULT: class 1
